# target: helicase domain of the Pol θ protein (Homo sapiens)
# Construct: The helicase domain of the Pol θ protein was purified from insect protein expression system; made in house; host or cells: insect protein expression system
# Sequence (O75417 102-554 limits assumed): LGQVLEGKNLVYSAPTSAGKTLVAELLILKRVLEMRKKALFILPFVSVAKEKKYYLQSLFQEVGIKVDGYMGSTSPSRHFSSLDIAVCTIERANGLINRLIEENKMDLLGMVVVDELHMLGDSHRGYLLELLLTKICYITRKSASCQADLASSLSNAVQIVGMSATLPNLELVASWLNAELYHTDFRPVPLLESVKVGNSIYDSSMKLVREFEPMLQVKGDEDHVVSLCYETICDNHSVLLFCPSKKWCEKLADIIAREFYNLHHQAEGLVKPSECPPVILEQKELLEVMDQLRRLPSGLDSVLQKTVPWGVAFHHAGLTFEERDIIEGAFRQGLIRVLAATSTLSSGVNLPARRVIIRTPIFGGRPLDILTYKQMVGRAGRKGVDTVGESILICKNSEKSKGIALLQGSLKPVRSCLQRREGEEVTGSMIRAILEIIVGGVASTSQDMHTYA
# test description: Biochemical Activity Assay (ADP Glo Assay) of Pol θ inhibitor, ATPase activity
# experimental context: ADP-Glo assay, ATPase activity of Pol θ helicase domain, ssDNA substrate; read-out: Biochemical assay IC50
Categories are defined by ranges of IC50, namely group A (below 6 nM), group B (6 nM to below 10 nM), group C (10 nM or more)

Worked examples, 5 molecules total:
| molecule | target | qualitative label |
| --- | --- | --- |
| COc1cnc(Cl)cc1-c1cc(N2CCN(C)C3(CC3)C2=O)ncc1C(=O)Nc1nc2cnc(-c3c(C)nnn3C)cc2s1 [Example 196] | helicase domain of the Pol θ protein (Homo sapiens) | group C |
| COc1cnc(Cl)cc1-c1cc(C)ncc1C(=O)Nc1nc2ncc(C3=CCC(NC(C)=O)CC3)cc2s1 (stereo not drawn) [Example 23] | helicase domain of the Pol θ protein (Homo sapiens) | group A |
| COc1cnc(Cl)cc1-c1cc(C)ncc1C(=O)Nc1nc2ccc([C@H]3CC[C@H](O)CC3)nc2s1 [Example 29] | helicase domain of the Pol θ protein (Homo sapiens) | group C |
| COc1cnc(Cl)cc1-c1cc(C)ncc1C(=O)Nc1nc2cnc(C3=CCC4(CC3)CN(C(C)=O)C4)cc2s1 [Example 185] | helicase domain of the Pol θ protein (Homo sapiens) | group B |
| Cc1cc(-c2cc(Cl)ncc2OC(F)F)c(C(=O)Nc2nc3ccc(N4CCC(O)CC4)nc3s2)cn1 [Example 130] | helicase domain of the Pol θ protein (Homo sapiens) | group B |

Consider COc1cnc(Cl)cc1-c1cc(C)ncc1C(=O)Nc1nc2ncc(N3CCC(NC(C)=O)CC3)cc2s1 [Example 57] . To which IC50 class does it belong?
group A

Class for COc1cnc(Cl)cc1-c1cc(C)ncc1C(=O)Nc1nc2ncc(S(C)(=O)=O)cc2s1 [Example 94] ?
group B

Sort COc1cnc(Cl)cc1-c1cc(C)ncc1C(=O)Nc1nc2ccc(N3CCC(C)(O)CC3)cc2s1 [Example 48] into one of the categories.
group C
